For each of the compounds below, state its pIC50.
Test system: human progesterone receptor A (Homo sapiens, UniProt P06401)
Sequence (P06401 1-769 isoform P06401-2): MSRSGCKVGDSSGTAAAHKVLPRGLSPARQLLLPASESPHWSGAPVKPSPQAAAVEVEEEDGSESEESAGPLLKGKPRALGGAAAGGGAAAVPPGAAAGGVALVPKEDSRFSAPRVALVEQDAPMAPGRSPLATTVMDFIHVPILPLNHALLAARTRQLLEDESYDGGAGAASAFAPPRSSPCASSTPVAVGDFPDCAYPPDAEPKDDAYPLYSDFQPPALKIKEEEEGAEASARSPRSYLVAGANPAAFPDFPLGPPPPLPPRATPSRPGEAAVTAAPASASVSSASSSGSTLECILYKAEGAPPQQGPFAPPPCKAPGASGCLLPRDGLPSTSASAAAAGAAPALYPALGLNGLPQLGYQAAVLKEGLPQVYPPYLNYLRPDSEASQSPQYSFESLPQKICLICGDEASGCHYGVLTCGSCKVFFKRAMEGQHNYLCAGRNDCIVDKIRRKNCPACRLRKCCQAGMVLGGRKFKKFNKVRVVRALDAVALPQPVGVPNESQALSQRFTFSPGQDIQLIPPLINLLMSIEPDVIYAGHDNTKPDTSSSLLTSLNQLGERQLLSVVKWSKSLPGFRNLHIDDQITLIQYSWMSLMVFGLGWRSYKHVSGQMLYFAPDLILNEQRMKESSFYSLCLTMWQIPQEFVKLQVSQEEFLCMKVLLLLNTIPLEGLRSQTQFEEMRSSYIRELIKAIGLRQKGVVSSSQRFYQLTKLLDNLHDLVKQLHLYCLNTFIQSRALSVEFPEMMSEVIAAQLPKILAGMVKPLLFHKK
Assay name: Progesterone-receptor-antagonistic action in stably transfected SK-N-MC cells, MTV-LUC reporter (PR-A)
Study conditions: antagonistic potency vs 0.1 nmol/l promegestone, 24 hours, luciferase
Numbers only, as −log10 of the molar value.

Solved entries:
{"Line notation": "C[C@]12C[C@H](c3ccc(C(=O)N4CCc5ccccc5C4)cc3)C3=C4CCC(=O)C=C4CC[C@H]3[C@@H]1CC[C@@]2(O)C(F)(F)C(F)(F)F", "pIC50": 8.02}
{"Line notation": "C[C@]12C[C@H](c3ccc(C(=O)N4CCCCC4)cc3)C3=C4CCC(=O)C=C4CC[C@H]3[C@@H]1CC[C@@]2(O)C(F)(F)C(F)(F)F", "pIC50": 8.33}
{"Line notation": "COC(=O)c1ccccc1NC(=O)c1ccc([C@H]2C[C@@]3(C)[C@@H](CC[C@@]3(O)C(F)(F)C(F)(F)F)[C@@H]3CCC4=CC(=O)CCC4=C32)cc1", "pIC50": 9.15}
{"Line notation": "C[C@]12C[C@H](c3ccc(C(=O)NCc4cccc(Cl)c4)cc3)C3=C4CCC(=O)C=C4CC[C@H]3[C@@H]1CC[C@@]2(O)C(F)(F)C(F)(F)F", "pIC50": 8.64}

Ask | Fill blank: measured pIC50 of the compound "C[C@]12C[C@H](c3ccc(C(=O)NCc4ccc(S(N)(=O)=O)cc4)cc3)C3=C4CCC(=O)C=C4CC[C@H]3[C@@H]1CC[C@@]2(O)C(F)(F)C(F)(F)F" is ____.
Reply | 8.33

###

Test system: human progesterone receptor A (Homo sapiens)
Sequence (P06401 1-769 isoform P06401-2): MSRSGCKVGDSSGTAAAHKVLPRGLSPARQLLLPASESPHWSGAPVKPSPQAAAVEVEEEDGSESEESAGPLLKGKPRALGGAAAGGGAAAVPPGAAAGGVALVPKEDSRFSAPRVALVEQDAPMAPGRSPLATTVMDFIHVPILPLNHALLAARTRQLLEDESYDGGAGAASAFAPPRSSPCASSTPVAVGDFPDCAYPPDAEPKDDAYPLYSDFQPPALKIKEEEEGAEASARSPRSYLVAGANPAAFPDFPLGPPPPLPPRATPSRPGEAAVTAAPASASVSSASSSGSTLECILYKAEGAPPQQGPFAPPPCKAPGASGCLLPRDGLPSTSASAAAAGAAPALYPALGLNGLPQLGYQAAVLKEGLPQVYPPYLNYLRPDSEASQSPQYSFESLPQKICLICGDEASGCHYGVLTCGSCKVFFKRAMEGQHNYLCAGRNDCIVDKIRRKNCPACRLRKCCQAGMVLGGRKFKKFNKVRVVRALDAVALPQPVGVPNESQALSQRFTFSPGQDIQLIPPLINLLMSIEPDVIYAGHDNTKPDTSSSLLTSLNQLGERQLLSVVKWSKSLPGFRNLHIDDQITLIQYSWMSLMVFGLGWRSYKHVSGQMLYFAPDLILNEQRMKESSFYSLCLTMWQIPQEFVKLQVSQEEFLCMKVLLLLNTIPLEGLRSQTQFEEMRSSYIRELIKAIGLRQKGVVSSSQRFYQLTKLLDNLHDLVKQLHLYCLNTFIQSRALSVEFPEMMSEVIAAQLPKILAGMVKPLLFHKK
Assay name: Progesterone-receptor-antagonistic action in stably transfected SK-N-MC cells, MTV-LUC reporter (PR-A)
Study conditions: antagonistic potency vs 0.1 nmol/l promegestone, 24 hours, luciferase
Measurement type: pIC50
Numbers only, as −log10 of the molar value.

Solved entries:
{"Molecule": "CN(Cc1ccccc1)C(=O)c1ccc([C@H]2C[C@@]3(C)[C@@H](CC[C@@]3(O)C(F)(F)C(F)(F)F)[C@@H]3CCC4=CC(=O)CCC4=C32)cc1 [Example 51]", "pIC50": 8.05}
{"Molecule": "COc1cccc(CNC(=O)c2ccc([C@H]3C[C@@]4(C)[C@@H](CC[C@@]4(O)C(F)(F)C(F)(F)F)[C@@H]4CCC5=CC(=O)CCC5=C43)cc2)c1 [Example 53]", "pIC50": 7.54}

Switching to the query record.
Ask | Fill blank: measured pIC50 of the molecule CN(C)CCNC(=O)c1ccc([C@H]2C[C@@]3(C)[C@@H](CC[C@@]3(O)C(F)(F)C(F)(F)F)[C@@H]3CCC4=CC(=O)CCC4=C32)cc1 [Example 7] is ____.
Reply | 7.27
